experiment: qHTS of pediatric cancer cell lines to identify multiple opportunities for drug repurposing: Confirmatory screen for Rh41 cells (AID 1347123); details: Rh41 rhabdomyosarcoma cells, viability/cytotoxicity qHTS; series mostly up to 45.9 µM;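 further: 48 h compound exposure; nearly all actives have a fitted effect of over 60% in size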
Inconclusive results are not listed. Active and inactive are the calls of the source. The call rests on the fitted dose curve; in most records, active means well fitted cell-killing curve with a large enough effect; inconclusive means small, poorly fitted or top-dose-only effect; inactive means no such curve, though single readings can be large or run the other way.
Outcome field: choose from yes (1) for active, no (0) for inactive

Here's what some known entries look like.
C=C1[C@H](n2cnc3c(=O)[nH]c(N)nc32)C[C@H](O)[C@H]1CO	no (0)
CC1=C[C@@H]2[C@@H]([C@@H](O)C[C@@]3(C)[C@H]2C[C@@H](C)[C@]3(O)C(=O)CO)[C@@]2(C)Cc3cnn(-c4ccccc4)c3C=C12	yes (1)
CCC(=O)OCC(=O)[C@@]1(OC(=O)CC)[C@@H](C)C[C@@H]2[C@H]3CCC4=CC(=O)C=C[C@]4(C)[C@@]3(F)[C@@H](O)C[C@@]21C	yes (1)
O=C1NC(=O)C(c2cnc3ccccn23)=C1c1cn2c3c(cccc13)CN(C(=O)N1CCOCC1)CC2	yes (1)
CO[C@H]1/C=C\O[C@@]2(C)Oc3c(C)c(O)c4c(O)c(c(C=NN5CCN(C6CCCC6)CC5)c(O)c4c3C2=O)NC(=O)C(C)=CC=C[C@H](C)[C@H](O)[C@@H](C)[C@@H](O)[C@@H](C)[C@H](OC(C)=O)[C@H]1C	yes (1)

Q) // param item: "Cc1ccc(C(=O)N(CCCN)[C@@H](c2nc3cc(Cl)ccc3c(=O)n2Cc2ccccc2)C(C)C)cc1" ; yields the recorded call
A) yes (1)

Q) // param item: "O=C(c1ccc(F)c(F)c1Nc1ccc(I)cc1F)N1CC(O)([C@H]2CCCCN2)C1" ; yields the recorded call
A) yes (1)

Q) // param item: CCOC(=O)[C@H](CCc1ccccc1)N[C@@H](C)C(=O)N1CCCC1C(=O)O (some centres undefined) ; yields the recorded call
A) yes (1)

Q) // param item: C[C@@H]1O[C@@H](O[C@H]2CC[C@@]3(C)[C@H](CC[C@@H]4[C@H]3C[C@@H](O)[C@]3(C)[C@@H](C5=CC(=O)OC5)CC[C@]43O)C2)C[C@H](O)[C@@H]1O[C@H]1C[C@H](O)[C@H](O[C@H]2C[C@H](O)[C@@H](O)[C@@H](C)O2)[C@H](C)O1 (stereo in doubt) ; yields the recorded call
A) yes (1)

Q) // param item: "NC(N)=Nc1nc(CSCCC(N)=NS(N)(=O)=O)cs1" ; yields the recorded call
A) no (0)

Q) // param item: "C[C@@]1(C(=O)Nc2ccc(F)nc2)CCCN1c1nc(Nc2cc(C3CC3)[nH]n2)c2cccn2n1" ; yields the recorded call
A) yes (1)

Q) // param item: "COc1cc2c(cc1Cc1cccc(Cl)c1F)c(=O)c(C(=O)O)cn2[C@H](CO)C(C)C" ; yields the recorded call
A) yes (1)

Q) // param item: CN(C(Cc1ccc(OS(=O)(=O)c2cccc3cnccc23)cc1)C(=O)N1CCN(c2ccccc2)CC1)S(=O)(=O)c1cccc2cnccc12 (centres undefined) ; yields the recorded call
A) yes (1)

Q) // param item: "Cc1c(C(=O)Nc2ccc(N3C[C@@H](C)O[C@@H](C)C3)nc2)cccc1-c1ccc(OC(F)(F)F)cc1" ; yields the recorded call
A) yes (1)

---

Reported parasite growth, % of DMSO control values for the following compounds.
assay: qHTS profiling of the MIPE4 collection as inhibitors of Plasmodium falciparum (3D7) proliferation (AID 743344);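 further: scaled between DMSO vehicle wells and 0.29 µM artemisinin as full inhibition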; details: P. falciparum 3D7 in erythrocytes, SYBR Green DNA fluorescence, 72 h; at 28.5 µM (top of the series) unless noted
Reply numerically in %, unit not repeated.

Cc1ccc(S(=O)(=O)OCC(=O)Nc2ccc(C(=O)O)c(O)c2)cc1	61.2
O=S(=O)(NCCNCC=Cc1ccc(Br)cc1)c1cccc2cnccc12	35.6
Cc1[nH]c(C=C2C(=O)Nc3ccc(S(=O)(=O)N(C)c4cccc(Cl)c4)cc32)c(C)c1C(=O)N1CCN(C)CC1	7.33
CCC[C@H](N[C@@H](C)C(=O)N1[C@@H]2CCCC[C@H]2C[C@H]1C(=O)O)C(=O)OCC	69
CC[C@H](CC#N)OC(=O)N[C@@H](C)c1cccc(NC(=O)Nc2ccc(-c3cnco3)c(OC)c2)c1	12.8

Q) Name the recorded parasite growth, % of DMSO control for "CC(C)[C@H](O)C(=O)N[C@@H](C)C(=O)N[C@@H]1C(=O)N(C)CCc2ccccc21" .
A) 13.3

Q) Name the recorded parasite growth, % of DMSO control for "CC(C)(O)CC(=O)NCCn1ccc2ncnc(Nc3ccc(Oc4cccc(C(F)(F)F)c4)c(Cl)c3)c21" .
A) 11.6

---

tested on: NIH3T3; test: Cytotoxic Profiling of Annotated Libraries Using Quantitative High-Throughput Screening (AID 1296008); conditions: Five cell lines viability, CellTiter-Glo ATP luminescence, 48-72 h; stronger effect = lower value; further: on the % scale 0 is the no-effect control and ±100 the full control effect; nearly all actives have a fitted effect of over 60% in size
Records with an inconclusive call do not appear.
Reported max response values for the following compounds.
Reply numerically in %, unit not repeated.

CC(C)C[C@H](NC(=O)c1cc2ccccc2s1)C(=O)N1CCN(C(=O)[C@H](CO)NS(=O)(=O)c2ccc(Cl)cc2Cl)CC1	-5.73

Q) Query for NIH3T3: what max response does the record show for "CN(C)c1ccccc1CN1CCCN(Cc2ccccc2N(C)C)C1c1ccncc1" ?
A) -1.17

Q) Query for NIH3T3: what max response does the record show for "N#CC(=C1Nc2ccccc2S1)c1ccnc(OCc2ccc(CN3CCOCC3)cc2)n1" ?
A) -8.13

Q) Query for NIH3T3: what max response does the record show for "Fc1ccc(CNc2ncnc3ccc(F)cc23)cc1" ?
A) -22.4

Q) Query for NIH3T3: what max response does the record show for "Cc1ccc(C(=O)N(CCCN)[C@@H](c2nc3cc(Cl)ccc3c(=O)n2Cc2ccccc2)C(C)C)cc1" ?
A) -42.8

Q) Query for NIH3T3: what max response does the record show for "CCNC(=O)Nc1ccc(Oc2ncnc(N)c2C=NOC)cc1Cl" ?
A) 4.69

Q) Query for NIH3T3: what max response does the record show for "Oc1cc(O)cc(C=Cc2ccc(O)c(O)c2)c1" ?
A) 3.17

---

assay: Quantitative High-Throughput drug screen in 47 multiple myeloma cell lines against the NCATS MIPE library collection: INA6_PLB cell viability assay (AID 1918965; further: nearly all actives have a fitted effect of over 55% in size); settings: INA6 myeloma viability, CellTiter-Glo ATP luminescence, 48 h; series mostly up to 45.8 µM
Results filed as inconclusive are left out. The source made the active and inactive calls. Calls follow the shape of the dose curve; as a rule, active = well fitted cell-killing curve with a large enough effect; inconclusive = small, poorly fitted or top-dose-only effect, or effect the other way; inactive = no such curve, though single readings can be large or run the other way.
Outcome field: choose from active, inactive

CN1[C@H]2CC[C@H]1CC(OC(=O)c1c[nH]c3ccccc13)C2 (some centres undefined)	inactive
CN(C)CCOc1ccc(C(=C(CCCl)c2ccccc2)c2ccccc2)cc1	active
CCCCCCCCCCCCCC(=O)N[C@H](CO)[C@H](O)c1ccc([N+](=O)[O-])cc1	active

Q) // param item: "NS(=O)(=O)c1cc(Cl)c(Cl)c(S(N)(=O)=O)c1" ; yields the recorded call
A) inactive

Q) // param item: "CN(C)S(=O)(=O)c1ccc2c(c1)C(=Cc1cc3c([nH]1)CCCC3)C(=O)N2" ; yields the recorded call
A) active

Q) // param item: "CC(=O)OCC(=O)[C@@]1(O)CC[C@H]2[C@@H]3CCC4=CC(=O)C=C[C@]4(C)[C@@H]3[C@@H](O)C[C@@]21C" ; yields the recorded call
A) active

Q) // param item: "COc1ccc(-c2cc3nccn3c(Nc3ncccc3C(N)=O)n2)cc1OC" ; yields the recorded call
A) active

Q) // param item: "Cc1c(-c2cccc3c(CCCOc4cccc5ccccc45)c(C(=O)O)n(Cc4cccnc4)c23)c(COc2ccc(N3CCN([S+](=O)([O-])N(C)C)CC3)cc2)nn1C" ; yields the recorded call
A) active

Q) // param item: "COc1c(C)c2c(c(O)c1CC=C(C)CCC(=O)OCCN1CCOCC1)C(=O)OC2" ; yields the recorded call
A) active

---

assay: Quantitative High-Throughput drug screen in 47 multiple myeloma cell lines against the NCATS MIPE library collection: PCM6_Riken cell viability assay (AID 1919870); details: CellTiter-Glo ATP, 48 h; series mostly up to 45.8 µM; further: nearly all actives have a fitted effect of over 30% in size; further: potency means the concentration at half of the fitted maximal effect
Records with an inconclusive call do not appear. Active and inactive are the calls of the source. Calls follow the shape of the dose curve; as a rule, active = well fitted cell-killing curve with a large enough effect; inconclusive = small, poorly fitted or top-dose-only effect, or effect the other way; inactive = no such curve, though single readings can be large or run the other way.
property_measured: Potency

Examples with answers:
O=C1NC(=O)C(c2cnc3ccccn23)=C1c1cn2c3c(cccc13)CN(C(=O)N1CCOCC1)CC2	7.43 µM (active)
NCC1CCC(C(=O)O)CC1 (centres undefined)	inactive
C[C@]12C=CC(=O)C=C1CC[C@@H]1[C@@H]2[C@@H](O)C[C@@]2(C)[C@@H]1CC[C@]2(O)C(=O)CO	inactive
NC(=O)c1noc([C@H](CCCC2CCCCC2)CC(=O)NO)n1	16.6 µM (active)
CNC(=O)c1ccc2c(C(=Nc3cccc(CN(C)C)c3)c3ccccc3)c(O)[nH]c2c1	16.6 µM (active)

Q) Name the recorded Potency for "CN[C@@H]1CN(c2ccc3c(=O)c(C(=O)O)cn(-c4nccs4)c3n2)C[C@@H]1OC" .
A) 3.23 µM (active)

Q) Name the recorded Potency for "Cc1ccc2c(c1)C(=O)[C@]1(O)CCN(c3ccccc3)C1=N2" .
A) inactive

Q) Name the recorded Potency for "Cc1c(-c2cccc3c(CCCOc4cccc5ccccc45)c(C(=O)O)n(Cc4cccnc4)c23)c(COc2ccc(N3CCN([S+](=O)([O-])N(C)C)CC3)cc2)nn1C" .
A) inactive

Q) Name the recorded Potency for CN1C(=O)C(Cc2c[nH]c3ccccc23)NC1=S (centres undefined) .
A) 3.72 µM (active)
